# study_system: Acetylcholinesterase (Electrophorus electricus, UniProt O42275)
# Sequence (O42275 whole entry): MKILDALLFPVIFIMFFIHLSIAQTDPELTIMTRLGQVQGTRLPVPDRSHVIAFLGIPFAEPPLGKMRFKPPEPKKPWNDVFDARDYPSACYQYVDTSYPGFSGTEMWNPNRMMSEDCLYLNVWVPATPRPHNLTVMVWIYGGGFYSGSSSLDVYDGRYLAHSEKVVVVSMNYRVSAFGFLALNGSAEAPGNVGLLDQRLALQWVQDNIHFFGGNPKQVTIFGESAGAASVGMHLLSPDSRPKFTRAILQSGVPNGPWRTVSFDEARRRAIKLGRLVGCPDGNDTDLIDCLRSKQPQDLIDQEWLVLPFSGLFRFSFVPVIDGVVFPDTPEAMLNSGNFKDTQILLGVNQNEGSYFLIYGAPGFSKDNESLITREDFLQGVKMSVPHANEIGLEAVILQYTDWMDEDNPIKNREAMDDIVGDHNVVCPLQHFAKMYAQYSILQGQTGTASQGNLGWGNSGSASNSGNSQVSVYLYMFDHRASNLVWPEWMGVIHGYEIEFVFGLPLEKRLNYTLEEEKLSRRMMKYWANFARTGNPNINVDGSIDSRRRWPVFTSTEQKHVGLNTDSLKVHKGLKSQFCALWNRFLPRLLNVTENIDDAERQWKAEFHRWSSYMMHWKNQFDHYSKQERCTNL
# test_description: Inhibition of electric eel AChE using acetylthiocholine iodide as substrate preincubated for 20 mins followed by substrate addition measured for 5 mins by spectrophotometry based Ellman method
I'd be grateful if you could share measured IC50 for these entries.
API: value field is a number in µM; no unit string.

IC50 reading for CN(C)CCCCCN(C)C1=Nc2ccccc2C(CC(=O)NCc2ccc(F)cc2)N1c1ccc(-c2ccc(F)cc2)cc1 (centres undefined) : 6.5

IC50 reading for CN(CCCCCN)C1=Nc2ccccc2C(CC(=O)NCc2ccccc2)N1c1ccc(-c2ccccc2)cc1 (centres undefined) : 4.1

IC50 reading for CN(CCCCCN1CCCC1)C1=Nc2ccccc2C(CC(=O)NCc2ccccc2)N1c1ccc(-c2ccccc2)cc1 (centres undefined) : 6.6

IC50 reading for O=C(CC1c2ccccc2N=C(N2CCN(CCN3CCCC3)CC2)N1c1ccc(C2CCCCC2)cc1)NCc1ccc(F)cc1 (centres undefined) : 8

IC50 reading for CN(C)CCCCCN(C)C1=Nc2ccccc2C(CC(=O)NCc2ccc(F)cc2)N1c1ccc(C2CCCCC2)cc1 (centres undefined) : 4.4

IC50 reading for CN(C)CCCCCN(C)C1=Nc2c(F)cc(F)cc2C(CC(=O)NCc2ccccc2)N1c1ccc(-c2ccccc2)cc1 (centres undefined) : 1.2

----------
I'd be grateful if you could share measured pIC50 for these entries.
pIC50: −log10 of the molar value.

Noted pIC50 for COC(=O)CC1c2ccccc2N=C(N(C)CCCCCN)N1c1ccc(-c2ccccc2)cc1 (stereo not drawn) , tested on UniProt O42275: ≤ 5.00

Noted pIC50 for O=C(CC1c2ccccc2N=C(N2CCN(CCN3CCCC3)CC2)N1c1ccc(-c2ccccc2)cc1)NCc1ccc(F)cc1 (stereo not drawn) , tested on UniProt O42275: < 5.00

Noted pIC50 for CN(C)CCCCCN(C)C1=Nc2ccccc2C(CC(=O)NCc2ccccc2)N1c1ccc(-c2ccccc2)cc1 (stereo not drawn) , tested on UniProt O42275: ≤ 5.00

Noted pIC50 for COC(=O)CC1c2ccccc2N=C(N2CCN(C)CC2)N1C1CCCCC1 (stereo not drawn) , tested on UniProt O42275: ≤ 5.00

Noted pIC50 for CN(C)CCN1CCN(C2=Nc3ccccc3C(CC(=O)NCc3ccc(F)cc3)N2c2ccc(-c3ccccc3)cc2)CC1 (stereo not drawn) , tested on UniProt O42275: ≤ 5.00

Noted pIC50 for CN1CCN(C2=Nc3ccccc3C(CC(=O)NCc3ccccc3)N2c2ccccc2)CC1 (stereo not drawn) , tested on UniProt O42275: < 5.00

Noted pIC50 for O=C(CC1c2cccc(F)c2N=C(N2CCN(CCN3CCCC3)CC2)N1c1ccc(C2CCCCC2)cc1)NCc1ccc(F)cc1 (stereo not drawn) , tested on UniProt O42275: < 5.00

Noted pIC50 for COc1ccc(CNC(=O)CC2c3ccccc3N=C(N3CCN(CCN(C)C)CC3)N2c2ccc(-c3ccccc3)cc2)cc1 (stereo not drawn) , tested on UniProt O42275: < 5.00
